System: CP325
Assay: qHTS profiling for inhibitors of Plasmodium falciparum proliferation (AID 504749); note: nearly all actives have a fitted effect of over 60% in size
Conditions: P. falciparum in erythrocytes, SYBR Green DNA, 72 h; series mostly up to 28.7 µM
Results filed as inconclusive are left out. Activity calls are given as the source filed them. Calls come from the whole dose curve; as a rule, active = well fitted inhibition curve with a large enough effect; inconclusive = small, poorly fitted or top-dose-only effect; inactive = flat fitted curve, though single readings scatter.
Output constraint: value belongs to YES = active, NO = inactive

# outcome recorded in this test, key = CCCCC1=NC2(CCCC2)C(=O)N1Cc1ccc(-c2ccccc2-c2nn[nH]n2)cc1
NO

# outcome recorded in this test, key = CCCCC(CC)CN=C(N)NC(N)=NCCCCCCN=C(N)NC(N)=NCC(CC)CCCC (configuration not stated)
YES

# outcome recorded in this test, key = NC(=NCCCCCCN=C(N)/N=C(\N)Nc1ccc(Cl)cc1)/N=C(\N)Nc1ccc(Cl)cc1
YES

# outcome recorded in this test, key = CN(C(=O)CN(CCO)CC(=O)N(C)C(C)(C)Cc1ccccc1)C(C)(C)Cc1ccccc1
NO

# outcome recorded in this test, key = Cc1c(F)c(N2CCNC(C)C2)cc2c1c(=O)c(C(=O)O)cn2C1CC1 (configuration not stated)
NO

# outcome recorded in this test, key = Cc1ccc(C(=O)C(C)CN2CCCCC2)cc1 (configuration not stated)
NO

# outcome recorded in this test, key = COc1cc(OC)cc(OC)c1
NO

# outcome recorded in this test, key = Cc1c(C(C)C)c(=O)n(-c2ccccc2)n1C
NO

# outcome recorded in this test, key = COc1cc2c(cc1OC)C(C(C(=O)N(CCc1ccc(OC)c(OC)c1OC)CCc1ccc(OC)c(OC)c1OC)c1ccccc1)=NCC2 (configuration not stated)
YES

# outcome recorded in this test, key = CCCCCCC[N+](CC)(CC)CCCCc1ccc(Cl)cc1
YES

# outcome recorded in this test, key = C[C@]12CC[C@@H]3c4ccc(O)cc4CC[C@H]3[C@@H]1CC[C@@H]2O
NO

# outcome recorded in this test, key = O=C1[C@H]2CCCC[C@H]2C(=O)N1CCCCN1CCN(c2nsc3ccccc23)CC1
NO

# outcome recorded in this test, key = CC(=O)Oc1ccc(C(c2ccc(OC(C)=O)cc2)c2ccccn2)cc1
NO

# outcome recorded in this test, key = N[C@H](CO)C(=O)O
NO

# outcome recorded in this test, key = NCCCC[C@H](N[C@@H](CCc1ccccc1)C(=O)O)C(=O)N1CCC[C@H]1C(=O)O
NO

# outcome recorded in this test, key = c1ccc(OCc2ccc(CCCN3CCOCC3)cc2)cc1
NO

# outcome recorded in this test, key = Cc1c(C(N)=O)cc([N+](=O)[O-])cc1[N+](=O)[O-]
NO

# outcome recorded in this test, key = CN(C)C(=S)SC(=S)N(C)C
YES

# outcome recorded in this test, key = CC(C)(C)CC(C)(C)c1ccc(O)c(Cc2ccc(Cl)cc2Cl)c1
YES

# outcome recorded in this test, key = O=c1ccc2ccccc2o1
NO

# outcome recorded in this test, key = O=C(O)CCCCC(=O)O
NO

# outcome recorded in this test, key = Oc1c(Cl)cc(Cl)cc1Sc1cc(Cl)cc(Cl)c1O
NO

# outcome recorded in this test, key = COc1ccc(C2C(=O)c3ccccc3C2=O)cc1
NO

# outcome recorded in this test, key = Cc1c(N(C)CS(=O)(=O)O)c(=O)n(-c2ccccc2)n1C
NO

# outcome recorded in this test, key = CCN1CCC[C@H]1CNC(=O)c1c(OC)ccc(Br)c1OC
NO

# outcome recorded in this test, key = CC(=O)c1ccc2c(c1)N(CCCN1CCC(CCO)CC1)c1ccccc1S2
NO

# outcome recorded in this test, key = O=C(COc1ccc(Cl)cc1)N1CCN(Cc2ccc3c(c2)OCO3)CC1
NO
